# dMFI per entry
# tested.system: T1, human IL-12Rβ2 (human, UniProt Q99665 24-862)
# T1 construct: Expressed on HEK293T cells transiently transfected with a pcDNA3 plasmid (Genscript clone OHu21785); also called hIL-12RB2; IL-12 receptor β2 subunit
# T1 sequence: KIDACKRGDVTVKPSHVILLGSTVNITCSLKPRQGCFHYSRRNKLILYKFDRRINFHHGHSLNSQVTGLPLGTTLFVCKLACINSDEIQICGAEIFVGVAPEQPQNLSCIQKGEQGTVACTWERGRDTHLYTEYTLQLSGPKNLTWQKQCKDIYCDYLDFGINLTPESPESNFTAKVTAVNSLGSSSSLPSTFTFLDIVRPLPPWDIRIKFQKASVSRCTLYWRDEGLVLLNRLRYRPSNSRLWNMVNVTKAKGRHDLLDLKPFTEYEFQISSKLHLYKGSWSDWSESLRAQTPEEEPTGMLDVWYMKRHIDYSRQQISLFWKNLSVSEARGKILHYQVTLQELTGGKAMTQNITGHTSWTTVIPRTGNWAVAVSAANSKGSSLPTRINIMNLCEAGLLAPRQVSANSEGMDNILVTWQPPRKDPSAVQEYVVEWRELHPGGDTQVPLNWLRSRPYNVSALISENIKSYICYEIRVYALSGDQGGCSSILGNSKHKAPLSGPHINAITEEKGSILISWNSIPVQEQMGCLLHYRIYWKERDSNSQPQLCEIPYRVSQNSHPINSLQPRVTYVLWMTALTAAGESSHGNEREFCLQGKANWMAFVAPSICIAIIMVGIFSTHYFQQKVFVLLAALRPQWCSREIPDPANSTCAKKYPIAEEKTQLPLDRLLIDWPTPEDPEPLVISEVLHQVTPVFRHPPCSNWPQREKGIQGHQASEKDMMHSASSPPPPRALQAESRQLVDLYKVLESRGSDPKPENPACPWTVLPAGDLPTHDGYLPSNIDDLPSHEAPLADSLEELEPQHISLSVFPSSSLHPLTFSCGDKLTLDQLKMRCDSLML
# test: flow cytometry, P.E. on transfected HEK293T cells

{"binder": "anti-IL-12Rβ2 VHH clone 2CRH62 (VHH, not shown: small tags and cut ends, periplasmic extract) VHH: QVQLQESGGGLVQPGGSLRLSCVESGRTFTVYDMGWFRQAPGKEREIVAAISADGATSIYQDSVKGRFTISRDNDAKNTVYLQMNSLKPEDTAVYYCAAGRSLIYNLYRANNTDYWGQGTQVTVSS", "dMFI": 891}
{"binder": "anti-IL-12Rβ2 VHH clone 2CAH27 (VHH, not shown: small tags and cut ends, periplasmic extract) VHH: QVQLQESGGGSVQSGGSLRLSCVASGRTFSSYAMGWFRQGPGKEREFVAAISWSGVSIYYADSVKGRFTISRDNAKNTVYLQMNSLEPEDTAVYYCAGTEGAYTVAGGSTFGYDMDYWGKGTQVTVSS", "dMFI": 668}
{"binder": "anti-IL-12Rβ2 VHH clone 3CRHS31 (VHH, not shown: small tags and cut ends, periplasmic extract) VHH: QVQLQESGGGLVQAGGSLRLSCAASGFTFSTYAMSWVRQAPGKGLEWVSSVNSGGLSTDYADSVEGRFTISRDDAKNMLFLQMNSLKPEDTARYYCAKYEDCSDYVCDRAGYWGQGTQVTVSS", "dMFI": 977}
{"binder": "anti-IL-12Rβ2 VHH clone 2CRH10 (VHH, not shown: small tags and cut ends, periplasmic extract; also called 20362) VHH: QVQLQESGGGLVQAGGSLVLSCAASGSAALIFLMSWYRQAPGKQRELVAEVSRGGSTTYADSVEGRFHISRDNAKNIVDLQMNSLKPEDTAVYYCKADQNYGDSLRSSWGRGTQVTVSS", "dMFI": 595}
{"binder": "anti-IL-12Rβ2 VHH clone 3CRH14 (VHH, not shown: small tags and cut ends, periplasmic extract) VHH: QVQLQESGGGLVQPGGSLRLSCAASGFTFSTSGMHWFRQAPGKGLEWVSSIGIIVDSSYYADSVKGRFTISRDNAKNTLFLQMNSLKSEDTAVYYCSKDPTGSSRGQGTQVTVSS", "dMFI": 864}
{"binder": "anti-IL-12Rβ2 VHH clone 3CRHS3 (VHH, not shown: small tags and cut ends, periplasmic extract) VHH: QVQLQESGGGLVQPGGSLRLSCTASGSIFSIYNMDWYRQAPGNQREWVASITSSGDPYYDASVKGRFTISRDSAKMTVYLQMNSLKPEDTAVYYCKLPTEKGNYWGQGTQVTVSS", "dMFI": 1320}
{"binder": "anti-IL-12Rβ2 VHH clone 3CAH60 (VHH, not shown: small tags and cut ends, periplasmic extract; also called 20361) VHH: QVQLQESGGGLVQPGGSLILSCVASGFAMDYLTMGWSREAPRNEREDISCIDTSGRSTDYLDSVKGRFTISRDNAKNTLYLHMNDLKPEDTAEYYCLASTSYCGAGYEYRGQGTQVTVSS", "dMFI": 18}
{"binder": "anti-IL-12Rβ2 VHH clone 3CAH28 (VHH, not shown: small tags and cut ends, periplasmic extract; also called 20356) VHH: QVQLQESGGGLVQSGASLRLSCAASERTLSGYAMGWFRQAPGKEREFVAAIRWSGSSTYYAESVEGRFTISRDNAKNTVYLQMNILKPEDTAVYYCAAGSDYADEYDYWGQGTQVTVSS", "dMFI": 37}
{"binder": "anti-IL-12Rβ2 VHH clone 2CRH41 (VHH, not shown: small tags and cut ends, periplasmic extract; also called 20365) VHH: QVQLQESGGGLVQPGGSLRLSCTASGFAFSSYWMYWVRQSPEKGFEWVSVVDTDGGITYYADSVKGRFTISRDNAKNTLYLQMNSLKPQDTALYYCARDRTTLEYTRTYYRTGQGTQVTVSS", "dMFI": 583}
{"binder": "anti-IL-12Rβ2 VHH clone 3CRHS166 (VHH, not shown: small tags and cut ends, periplasmic extract) VHH: QVQLQESGGGLVQSGGSLRLSCVSSQTLVGIEAMGWYRQAPGKQRELVALITLNGGTFYADSVKGRFTISRDVAEHMLYLEMNSLNPEDTAVYFCVAGVESDNEEPTYWGQGTQVTVSS", "dMFI": 266}
